- experiment summary: inhibitors of mitochondrial cytochrome c release, biochemical, purified mitochondria (AID 1603);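 note: mouse liver mitochondria challenged with calcium chloride; signal normalized to the plate average as 100%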
- condition set: stronger effect = lower value
Bridge positions count the residues as written; N and C are the ends. Square brackets hold non-standard residues; d marks the D form. Peptide text beside a SMILES is read from it. * marks the point of attachment. ξ: configuration not given here. ξDab(CH2SO3H) = NC(CCNCS(=O)(=O)O)C(=O)O; Heptanoyl(6-Me) = CC(C)CCCCC(=O)*; Dab = NCC[CH](N)C(=O)O
measured metric: cytochrome c release ratio

Worked examples follow.
>>> result("CCC(C)C1NC(=O)C(CCNCS(=O)(=O)O)NC(=O)C(NC(=O)C(CCNCS(=O)(=O)O)NC(=O)C(NC(=O)C(CCNCS(=O)(=O)O)NC(=O)CCCCC(C)C)C(C)O)CCNC(=O)C(C(C)O)NC(=O)C(CCNCS(=O)(=O)O)NC(=O)C(CCNCS(=O)(=O)O)NC(=O)C(C(C)CC)NC1=O (stereo unspecified) ({Heptanoyl(6-Me)}-[ξDab(CH2SO3H)]T[ξDab(CH2SO3H)][Dab][ξDab(CH2SO3H)]II[ξDab(CH2SO3H)][ξDab(CH2SO3H)]T; lactam 4-C; configuration not given here)")
1.4
>>> result("C#C[C@]1(O)CCC2C3CCC4=C(CCC(=O)C4)C3CC[C@@]21C (stereo partly specified)")
1.11
>>> result("C=C(C)[C@H]1CC=C(C(=O)O)CC1")
0.96
>>> result("COC(=O)C(N)CS (stereo unspecified)")
1.33
>>> result("CCN1CCN(C(=O)NC(C(=O)N[C@@H]2C(=O)N3[C@@H]2SC(C)(C)[C@@H]3C(=O)O)c2ccccc2)C(=O)C1=O (stereo partly specified)")
1

Now let's try a different one.
[in] I'd like to know its cytochrome c release ratio. The molecule in question is Cc1c(C)c2c(c(C)c1O)CCC(C)(CCCC(C)CCCC(C)CCCC(C)C)O2 (stereo unspecified)
[out] 1.24

* * *

- Tested on: F380Y/beta2Delta
- experiment summary: modulators of BK channel variants, profiling panel, selectivity assay, cell-based, U2OS BacMam, thallium flux, beta subunits (AID 1259406);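 note: initial slope of Thallos dye fluorescence rise after thallium is added; log ratio against the mean of 0.3% DMSO vehicle wells on the same plate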
- condition set: at 30 µM
Response field class: enum, chosen by comparing log fold change Tl+ flux against low group (below -0.03), middle group (-0.03 to below 0.04), high group (0.04 or more)

Examples from the recorded data:
>>> class_name("O=C(O)C[C@H](O)C[C@H](O)/C=C/c1c(C2CC2)nc2ccccc2c1-c1ccc(F)cc1")
"high group"
>>> class_name("CC(=O)Nc1ccc(OCC(=O)N2CCN(c3ncc(C(F)(F)F)cc3Cl)CC2)cc1")
"middle group"
>>> class_name("CSC(=S)NNC(=O)c1ccc(C(F)(F)F)cc1")
"high group"
>>> class_name("Clc1cc(Cl)c(NN=Cc2cc(C#Cc3ccccc3)cs2)c(Cl)c1")
"low group"
>>> class_name("N#CC(CCC(=O)O)(CCC(=O)O)S(=O)(=O)c1ccccc1")
"low group"

[in] Categorize the following entry: `CC(=O)NCCCCCCNC(C)=O`
[out] middle group

[in] Categorize the following entry: `CCOC(=O)c1ccc(OC(=O)CCCCCN=C(N)N)cc1`
[out] middle group

[in] Categorize the following entry: `CC(=O)O[C@@]12CO[C@@H]1C[C@H](O)[C@@]1(C)C(=O)[C@H](O)C3=C(C)[C@@H](OC(=O)[C@H](O)[C@@H](NC(=O)OC(C)(C)C)c4ccccc4)C[C@](O)([C@@H](OC(=O)c4ccccc4)[C@H]21)C3(C)C`
[out] low group

[in] Categorize the following entry: `Cc1ccc(C(=O)c2c(-c3ccccc3)cc(-c3ccccc3)c3c2C(=O)CCC3)cc1`
[out] middle group
